Assay: Acute toxicity, intraperitoneal administration to mice, five days observation
Type: in vivo
Details: mouse, in vivo, ip, intraperitoneally, five weeks old ddy male mice
Kindly supply the reported LD50 at 120 h values for the records listed here.
Report only the number, with the unit mg/kg understood.

Lab note: COC1CC(OC2CCC3(C)C(CCC4C3C(OC(=O)C=Cc3ccccc3)C(OC(C)=O)C35COC6(C)OC43CCC65)C2)OC(C)C1OC1CC(OC)C(OC2OC(C)C(OC3OC(CO)C(O)C(O)C3O)C(OC)C2O)C(C)O1 (centres unmarked) [Condurango glycoside Bo, condurango glycoside Bo] gave LD50 at 120 h of 615

Lab note: COC1CC(OC2CCC3(C)C(CCC4C3C(OC(=O)C=Cc3ccccc3)C(OC(C)=O)C3(C)C(C(C)=O)CCC43O)C2)OC(C)C1OC1CC(OC)C(OC2OC(C)C(OC3OC(CO)C(O)C(O)C3O)C(OC)C2O)C(C)O1 (centres unmarked) [Condurango glycoside Ao, condurango glycoside Ao] gave LD50 at 120 h of 75

* * *

Experiment: Acute toxicity, intraperitoneal administration to mice, five days observation
Type: in vivo
Conditions: mouse, in vivo, ip, intraperitoneally, five weeks old ddy male mice
ENDPOINT: LD50 at 120 h (mg/kg)
Report only the number, with the unit mg/kg understood.

Lab note: COC1CC(OC2CCC3(C)C(CCC4C3C(OC(=O)C=Cc3ccccc3)C(OC(C)=O)C35COC(C)(OC)C3CCC45O)C2)OC(C)C1OC1CC(OC)C(OC2OC(C)C(OC3OC(CO)C(O)C(O)C3O)C(OC)C2O)C(C)O1 (stereo not drawn) [20-O-methyl-condurango glycoside Do] gave LD50 at 120 h of 603

Lab note: COC1CC(OC2CCC3(C)C(CCC4C3C(OC(=O)C=Cc3ccccc3)C(OC(C)=O)C3(C)C(C(C)O)CCC43O)C2)OC(C)C1OC1CC(OC)C(OC2OC(C)C(OC3OC(CO)C(O)C(O)C3O)C(OC)C2O)C(C)O1 (stereo not drawn) [Condurango glycoside Co, condurango glycoside Co] gave LD50 at 120 h of 375

Lab note: COC1CC(OC2CCC3(C)C(CCC4C3C(OC(=O)C=Cc3ccccc3)C(OC(C)=O)C35COC(C)(O)C3CCC45O)C2)OC(C)C1OC1CC(OC)C(OC2OC(C)C(OC3OC(CO)C(O)C(O)C3O)C(OC)C2O)C(C)O1 (stereo not drawn) [Condurango glycoside Do, condurango glycoside Do] gave LD50 at 120 h of 630

Where do these numbers come from? They come from patent US4452786A.
